Source: PubChem BioAssay AID1963828

# Test system: 991263-137-R1-J2-PDC complex spheroid viability
# method_summary: Anticancer human tumor 991263-137-R1-J2-PDC patient-derived colon adenocarcinoma cell line growth inhibition [POLQ]
# setup_conditions: second compound 0.1 µM; first compound 0.001 µM; stronger effect = lower value
# Method: Multicellular complex tumor spheroid response to Polymerase (POL) inhibitors (novobiocin, ART-558, RP6685) in combination with a variety of drugs and investigational agents in selected tumor cell lines The POL inhibitors (novobiocin, ART-558, and RP6685) were evaluated both individually and in combination with standard of care and investigational anticancer small molecules within a complex spheroid model of solid tumors. . […]
attribute_measured: viability, T/C
Your answer should be a number followed by the unit of measure.

// query viability, T/C value for entry CC[C@@]1(O)C(=O)OCc2c1cc1n(c2=O)Cc2cc3c(CN(C)C)c(O)ccc3nc2-1 + COC1C(OC(N)=O)C(O)C(Oc2ccc3c(O)c(NC(=O)c4ccc(O)c(CC=C(C)C)c4)c(=O)oc3c2C)OC1(C)C
125%

Item under review: Cn1ncnc1[C@H]1c2n[nH]c(=O)c3cc(F)cc(c23)N[C@@H]1c1ccc(F)cc1 + Cc1cccc(N(C)C(=O)C2C(O)CCN2c2nc(C)cc(C(F)(F)F)c2C#N)c1 . Reported viability, T/C?
130%

# viability, T/C lookup, item Cn1ncnc1[C@H]1c2n[nH]c(=O)c3cc(F)cc(c23)N[C@@H]1c1ccc(F)cc1 + Nc1ccc(C#CCN(C(=O)Cc2ncc(C(F)(F)F)cc2C(F)(F)F)c2ccc(F)cc2)nn1
102%

====

# Test system: 991263-137-R1-J2-PDC complex spheroid viability
# method_summary: Anticancer human tumor 991263-137-R1-J2-PDC cell line growth inhibition [POLQ];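 further: spheroids exposed to compounds for 7 days before readout; 100% = DMSO vehicle control viability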
# setup_conditions: second compound 0.0316 µM; first compound 0.0316 µM; stronger effect = lower value
# Protocol: Multicellular complex tumor spheroid response to Polymerase (POL) inhibitors (novobiocin, ART-558, RP6685) in combination with a variety of drugs and investigational agents in selected tumor cell lines The POL inhibitors (novobiocin, ART-558, and RP6685) were evaluated both individually and in combination with standard of care and investigational anticancer small molecules within a complex spheroid model of solid tumors. . […]
attribute_measured: viability, T/C (%)
Write the value in % as a bare number.

Lookup: viability, T/C / 991263-137-R1-J2-PDC complex spheroid viability / O=C(Nc1ccc(O)c(NS(=O)(=O)c2ccc(F)cc2)c1)c1ccc(-c2ccccc2)cc1 + Nc1ccc(C#CCN(C(=O)Cc2ncc(C(F)(F)F)cc2C(F)(F)F)c2ccc(F)cc2)nn1
97.7

Record CC1COCCN1c1cc(C2(O)CC3CCC(C2)O3)c2cnn(-c3ccn[nH]3)c2n1 (stereo not given) + Nc1ccc(C#CCN(C(=O)Cc2ncc(C(F)(F)F)cc2C(F)(F)F)c2ccc(F)cc2)nn1 : what is its viability, T/C with 991263-137-R1-J2-PDC complex spheroid viability?
105

For the record O=C(c1cc(Cc2n[nH]c(=O)c3ccccc23)ccc1F)N1CCN(C(=O)C2CC2)CC1 + Cc1cccc(N(C)C(=O)C2C(O)CCN2c2nc(C)cc(C(F)(F)F)c2C#N)c1 , what value of viability, T/C is listed for 991263-137-R1-J2-PDC complex spheroid viability?
105

Lab note: need viability, T/C for CC(C)n1c(=O)n(C)c2cnc3cc(F)c(-c4ccc(OCCCN5CCCCC5)nc4)cc3c21 + COC1C(OC(N)=O)C(O)C(Oc2ccc3c(O)c(NC(=O)c4ccc(O)c(CC=C(C)C)c4)c(=O)oc3c2C)OC1(C)C on 991263-137-R1-J2-PDC complex spheroid viability, anyone have it?
107

Missing value: viability, T/C, 991263-137-R1-J2-PDC complex spheroid viability, entry C#Cc1c(F)ccc2cc(O)cc(-c3ncc4c(N5CC6CCC(C5)N6)nc(OCC56CCCN5CC(F)C6)nc4c3F)c12 (stereo not given) + COC1C(OC(N)=O)C(O)C(Oc2ccc3c(O)c(NC(=O)c4ccc(O)c(CC=C(C)C)c4)c(=O)oc3c2C)OC1(C)C . Fill in?
103

Missing value: viability, T/C, 991263-137-R1-J2-PDC complex spheroid viability, entry COc1cccc2c1C(=O)c1c(O)c3c(c(O)c1C2=O)CC(O)(C(=O)CO)CC3OC1CC(N)C(O)C(C)O1 (stereo not given) + Cc1cccc(N(C)C(=O)C2C(O)CCN2c2nc(C)cc(C(F)(F)F)c2C#N)c1 . Fill in?
90.1

Request - read-out viability, T/C | tested on 991263-137-R1-J2-PDC complex spheroid viability | molecule C#Cc1c(F)ccc2cc(O)cc(-c3ncc4c(N5CC6CCC(C5)N6)nc(OCC56CCCN5CC(F)C6)nc4c3F)c12 (stereo not given) + Cc1cccc(N(C)C(=O)C2C(O)CCN2c2nc(C)cc(C(F)(F)F)c2C#N)c1
110

Form entry - test system: 991263-137-R1-J2-PDC complex spheroid viability; read-out: viability, T/C; molecule: CCc1cc2c(N3CCc4c(cc(Cn5ccnc5)cc4-c4cn(C)nc4C(F)(F)F)C3=O)ccnc2c(OC)n1 + COC1C(OC(N)=O)C(O)C(Oc2ccc3c(O)c(NC(=O)c4ccc(O)c(CC=C(C)C)c4)c(=O)oc3c2C)OC1(C)C
99.5

Fill in the recorded viability, T/C for this molecule, with 991263-137-R1-J2-PDC complex spheroid viability as test system: Nc1ccn(C2OC(CO)C(O)C2(F)F)c(=O)n1 (stereo not given) + COC1C(OC(N)=O)C(O)C(Oc2ccc3c(O)c(NC(=O)c4ccc(O)c(CC=C(C)C)c4)c(=O)oc3c2C)OC1(C)C
77.8

Query the reported viability, T/C for 991263-137-R1-J2-PDC complex spheroid viability; item: CC1COCCN1c1cc(-c2ccnn2C)c2ccnc(-c3ccn[nH]3)c2n1 (stereo not given) + COC1C(OC(N)=O)C(O)C(Oc2ccc3c(O)c(NC(=O)c4ccc(O)c(CC=C(C)C)c4)c(=O)oc3c2C)OC1(C)C
92.3

Record CCc1cc2c(N3CCc4c(cc(Cn5ccnc5)cc4-c4cn(C)nc4C(F)(F)F)C3=O)cc(C)nc2c(OC)n1 + COC1C(OC(N)=O)C(O)C(Oc2ccc3c(O)c(NC(=O)c4ccc(O)c(CC=C(C)C)c4)c(=O)oc3c2C)OC1(C)C : what is its viability, T/C with 991263-137-R1-J2-PDC complex spheroid viability?
108

Query the reported viability, T/C for 991263-137-R1-J2-PDC complex spheroid viability; item: O=c1[nH]cc(F)c(=O)[nH]1 + COC1C(OC(N)=O)C(O)C(Oc2ccc3c(O)c(NC(=O)c4ccc(O)c(CC=C(C)C)c4)c(=O)oc3c2C)OC1(C)C
94

Provide the documented viability, T/C with 991263-137-R1-J2-PDC complex spheroid viability as the system for CC1COCCN1c1cc(C2(S(C)(=N)=O)CC2)nc(-c2ccnc3[nH]ccc23)n1 (stereo not given) + Nc1ccc(C#CCN(C(=O)Cc2ncc(C(F)(F)F)cc2C(F)(F)F)c2ccc(F)cc2)nn1
100

// lookup viability, T/C | system=991263-137-R1-J2-PDC complex spheroid viability | key= COc1cc2cc(C(=O)CCC(=O)O)sc2cc1OC + Nc1ccc(C#CCN(C(=O)Cc2ncc(C(F)(F)F)cc2C(F)(F)F)c2ccc(F)cc2)nn1
115

API: value(readout=viability, T/C, system=991263-137-R1-J2-PDC complex spheroid viability) for record CCCS(=O)(=O)Nc1ccc(F)c(C(=O)c2c[nH]c3ncc(-c4ccc(Cl)cc4)cc23)c1F + Nc1ccc(C#CCN(C(=O)Cc2ncc(C(F)(F)F)cc2C(F)(F)F)c2ccc(F)cc2)nn1
114

Form field: viability, T/C recorded for CC1COCCN1c1cc(C2(S(C)(=N)=O)CC2)nc(-c2ccnc3[nH]ccc23)n1 (stereo not given) + Cc1cccc(N(C)C(=O)C2C(O)CCN2c2nc(C)cc(C(F)(F)F)c2C#N)c1 with 991263-137-R1-J2-PDC complex spheroid viability (enter value)
96.9

Request body: readout viability, T/C, system 991263-137-R1-J2-PDC complex spheroid viability, query CCc1c2c(nc3ccc(O)cc13)-c1cc3c(c(=O)n1C2)COC(=O)[C@]3(O)CC + Cc1cccc(N(C)C(=O)C2C(O)CCN2c2nc(C)cc(C(F)(F)F)c2C#N)c1 . Return the value.
48.6

Checklist item: viability, T/C tested on 991263-137-R1-J2-PDC complex spheroid viability, entry CC1COCCN1c1cc(C2(O)CC3CCC(C2)O3)c2cnn(-c3ccn[nH]3)c2n1 (stereo not given) + Cc1cccc(N(C)C(=O)C2C(O)CCN2c2nc(C)cc(C(F)(F)F)c2C#N)c1 , value?
107

Record COc1cccc(OCCCN)c1-c1cc(Nc2cnc(C#N)cn2)n[nH]1 + COC1C(OC(N)=O)C(O)C(Oc2ccc3c(O)c(NC(=O)c4ccc(O)c(CC=C(C)C)c4)c(=O)oc3c2C)OC1(C)C : what is its viability, T/C with 991263-137-R1-J2-PDC complex spheroid viability?
84.4

Test system 991263-137-R1-J2-PDC complex spheroid viability; read-out viability, T/C; what value for CC1COCCN1c1cc(C2(S(C)(=N)=O)CC2)nc(-c2ccnc3[nH]ccc23)n1 (stereo not given) + COC1C(OC(N)=O)C(O)C(Oc2ccc3c(O)c(NC(=O)c4ccc(O)c(CC=C(C)C)c4)c(=O)oc3c2C)OC1(C)C ?
99.2
